// provenance: PubChem BioAssay (NCATS)

Test system: C33A
Test: Primary qHTS to identify gynecologic anti-cancer compounds using libraries of approved drugs and bioactive compounds (AID 1345084); further: on the % scale 0 is the no-effect control and ±100 the full control effect; nearly all actives have a fitted effect of over 55% in size
Conditions: Gynecologic cancer cell panel viability, ATPlite luminescence, 48 h; series mostly up to 57.5 µM
Records with an inconclusive call do not appear. Activity calls are given as the source filed them. The call rests on the fitted dose curve; in most records, active means well fitted cell-killing curve with a large enough effect; inconclusive means small, poorly fitted or top-dose-only effect, or effect the other way; inactive means flat fitted curve, though single readings scatter.
Write down the outcome that applies. Available outcomes: Y (active), N (inactive)

INSERT INTO results (compound, qualitative_label) VALUES
  ('COc1ccc(CN2CCNCC2)c(OC)c1OC', 'N'),
  ('O=C1NCN(c2ccccc2)C12CCN(CCCOc1ccc(F)cc1)CC2', 'N'),
  ('CC(Cc1ccccc1)NCCCCl (configuration not stated)', 'N'),
  ('CC(=O)OC1(c2ccccc2)CCN(CCc2ccccc2)CC1', 'N'),
  ('COc1ccc2[nH]cc(CCN(C(C)C)C(C)C)c2c1', 'N');

Shift focus to the following entry.
Short answer needed: outcome of this test for "Cc1nnc2n1-c1sc(CCC(=O)N3CCOCC3)cc1C(c1ccccc1Cl)=NC2" ?
N

###

Assay: Primary qHTS for Huh7 cytotoxicity: counterscreen for inhibitors of MERS-S pseudotyped particle cell entry (AID 1479147)
Details: cell viability read-out; series mostly up to 57.1 µM
Records with an inconclusive call do not appear. Calls of active or inactive are those of the source. The call rests on the fitted dose curve.
Recorded metric: outcome

INSERT INTO measurements (compound, measured) VALUES
  ('CC1=C(C)C(=O)C(C(CCCCCC(=O)O)c2ccccc2)=C(C)C1=O (stereo not given)', 'inactive'),
  ('CCCC(=O)O[C@]1(C(=O)CC)CC[C@H]2[C@@H]3CCC4=CC(=O)CC[C@]4(C)[C@H]3[C@@H](O)C[C@@]21C', 'inactive'),
  ('Cc1cc(=O)oc2cc(O)ccc12', 'inactive'),
  ('COC(=O)C1=C(C)NC(C)=C(C(=O)OC)C1c1ccccc1[N+](=O)[O-]', 'inactive');

For every item in the list below, what is its measured outcome?
1. C[C@H](N)C(=O)N[C@@H](C)C(=O)NC1[C@H]2CN(c3nc4c(cc3F)c(=O)c(C(=O)O)cn4-c3ccc(F)cc3F)C[C@@H]12 (stereo not given in full)
2. NCCNC(=O)c1ccc(Cl)cn1

1. inactive
2. inactive

For every item in the list below, what is its measured outcome?
1. Cc1nc(C2CCCCC2)c(-c2ccc(S(N)(=O)=O)c(F)c2)o1
2. CC(=O)c1ccc2c(c1)N(CCCN(C)C)c1ccccc1S2
3. Cc1cc(C(C)(C)C)c(O)c(C)c1CC1=NCCN1
4. C[N+](C)(C)CCOC(=O)CCC(=O)OCC[N+](C)(C)C

1. inactive
2. inactive
3. inactive
4. inactive

###

Test: qHTS of pediatric cancer cell lines to identify multiple opportunities for drug repurposing: Primary screen for SK-N-SH cells (AID 1347098); further: nearly all actives have a fitted effect of over 65% in size
Details: SK-N-SH viability, CellTiter-Glo luminescence, 48 h; series mostly up to 57 µM
Inconclusive results are not listed. Activity calls are given as the source filed them. Calls follow the shape of the dose curve; as a rule, active = well fitted cell-killing curve with a large enough effect; inconclusive = small, poorly fitted or top-dose-only effect; inactive = no such curve, though single readings can be large or run the other way.
Write down the outcome that applies. Available outcomes: TRUE for active, FALSE for inactive

INSERT INTO assay_data (molecule, qualitative_label) VALUES
  ('CCOC(=O)NC(O)C(Cl)(Cl)Cl (centres undefined)', 'FALSE'),
  ('CC#C[C@]1(O)CC[C@H]2[C@@H]3C[C@H](C)C4=CC(=O)CC[C@]4(C)[C@H]3CC[C@@]21C', 'FALSE'),
  ('Clc1ccc(CSC(Cn2ccnc2)c2ccc(Cl)cc2Cl)cc1 (centres undefined)', 'TRUE'),
  ('CN1C(=O)[C@@H](NC(=O)c2cc3ccccc3[nH]2)N=C(c2ccccc2)c2ccccc21', 'FALSE'),
  ('CC(C)(C)OC(=O)c1ncn2c1[C@@H]1CCCN1C(=O)c1c(Br)cccc1-2', 'FALSE'),
  ('COc1ccc(OC)c(CC(C)N)c1 (centres undefined)', 'FALSE'),
  ('C[C@]12CC[C@H]3[C@@H](CCC4=CC(=O)CC[C@@]43C)[C@@H]1CC[C@@H]2C(=O)O', 'FALSE'),
  ('Cc1c(Cl)c(=O)oc2cc(OP(=O)(OCCCl)OCCCl)ccc12', 'FALSE');

Short answer needed: outcome of this test for "C[C@@H]1O[C@@H](O[C@@H]2C=C3CC[C@@H]4[C@H](CC[C@]5(C)[C@@H](c6ccc(=O)oc6)CC[C@]45O)[C@@]3(C)CC2)[C@H](O)[C@H](O)[C@H]1O" ?
TRUE

Short answer needed: outcome of this test for CC1Sc2c(C(=O)O)c(=O)c3cc(F)c(N4CCNCC4)cc3n21 (centres undefined) ?
FALSE

Short answer needed: outcome of this test for C[C@@H]1CN(C2CCC(C#N)(c3ccc(F)cc3)CC2)CC[C@]1(C(=O)O)c1ccccc1 (some centres undefined) ?
FALSE

Short answer needed: outcome of this test for "CCCN(CCC)CCc1c[nH]c2ccccc12" ?
FALSE

Short answer needed: outcome of this test for COP(=O)(OC)C(O)C(Cl)(Cl)Cl (centres undefined) ?
FALSE

Short answer needed: outcome of this test for "NCc1cccnc1" ?
FALSE

Short answer needed: outcome of this test for CNC(C)Cc1ccccc1OC (centres undefined) ?
FALSE

Short answer needed: outcome of this test for COc1cc(N)c(Cl)cc1C(=O)NC1CN2CCC1CC2 (centres undefined) ?
FALSE

Short answer needed: outcome of this test for CC1N=C(N)OC1c1ccccc1 (centres undefined) ?
FALSE

###

Assay: qHTS Assay for Lipid Storage Modulators (AID 1519); further: on the % scale 0 is the no-effect control and ±100 the full control effect
Details: Drosophila S3 cells, BODIPY lipid droplet/cell ratio, laser cytometry; at 57.5 µM (top of the series); cells loaded with oleic acid
Results filed as inconclusive are left out.
Provide the reported activity change, negative = inhibition of each item.
One number for each entry, in %.

INSERT INTO results (compound, measured) VALUES
  ('Cc1cc(C(C)(C)C)cc(C)c1CC1=NCCN1', 0.173),
  ('CC[n+]1c(-c2ccccc2)c2cc(N)ccc2c2ccc(N)cc21', 1.12),
  ('NC(=O)CN1CCCC1=O', 8.11),
  ('Clc1ccc(CO/N=C(\Cn2ccnc2)c2ccc(Cl)cc2Cl)c(Cl)c1', 5.8),
  ('CCCC(C)C1(CC)C(=O)N=C(S)NC1=O (stereo not given)', 4.86),
  ('CNC(=O)Oc1ccc2c(c1)[C@]1(C)CCN(C)[C@@H]1N2C', 0.848),
  ('O=C(O)c1nn(Cc2ccc(Cl)cc2Cl)c2ccccc12', -2.04),
  ('COC(=O)C1=C(C)NC(C)=C(C(=O)OC)C1c1ccccc1[N+](=O)[O-]', -18.3);

For every item in the list below, what is its measured activity change, negative = inhibition?
1. CC(C)[N+](C)(CCC(C(N)=O)(c1ccccc1)c1ccccc1)C(C)C
2. COc1ccc(C(=O)N2CCCC2=O)cc1

[9.64, -0.445]

###

Conditions: Ebola virus entry assay, reporter ratio channel; Channel type: primary
The source made the active and inactive calls. No rule for the calls is given here.
Recorded metric: AC50

Worked cases, answers included:
INSERT INTO assay_data (compound, measured) VALUES
  ('O=C(CCCN1CC=C(n2c(=O)[nH]c3ccccc32)CC1)c1ccc(F)cc1', '17.8 µM (active)'),
  ('C[C@@H](O)[C@H](N)C(=O)O', 'inactive'),
  ('OCC(O)CS (stereo not drawn)', 'inactive'),
  ('CCCCOc1ccc(OCCCN2CCOCC2)cc1', '22.4 µM (active)'),
  ('NC(CSCC(=O)O)C(=O)O (stereo not drawn)', 'inactive'),
  ('Oc1ccc([C@H]2CNCc3c2ccc(O)c3O)cc1O', '14.1 µM (active)');

For every item in the list below, what is its measured AC50?
1. O=C(OCC(COC(=O)c1cccnc1)(COC(=O)c1cccnc1)COC(=O)c1cccnc1)c1cccnc1
2. Cc1nnc2n1-c1sc(CCc3ccc(CC(C)C)cc3)cc1C(c1ccccc1Cl)=NC2C (stereo not drawn)
3. CC1(C)CCC(C)(C)c2cc(NC(=O)c3ccc(C(=O)O)cc3)ccc21
4. NC1(c2ccc(-c3nc4ccn5c(=O)[nH]nc5c4cc3-c3ccccc3)cc2)CCC1
5. O=C(Nc1ccc(Cl)cc1)Nc1ccc(Cl)c(C(F)(F)F)c1
6. Nc1cc(C(F)(F)F)ccc1S

["inactive", "31.6 µM (active)", "inactive", "2.51 µM (active)", "8.91 µM (active)", "inactive"]

For every item in the list below, what is its measured AC50?
1. COc1nc(C)nc(Cl)c1NC1=NCCN1
2. NS(=O)(=O)c1cc2c(cc1Cl)CN(C1CCCCC1)C2=O
3. CC(Cc1ccccc1)NCc1ccccc1Cl (stereo not drawn)

inactive
inactive
14.1 µM (active)

For every item in the list below, what is its measured AC50?
1. COC(=O)C1=CCCN(C)C1
2. Oc1ccc(C(O)CNCCCCCCNCC(O)c2ccc(O)c(O)c2)cc1O (stereo not drawn)
3. C/C=C/c1ccc(O)c(OC)c1
4. O=C(NN1CCCC1)NS(=O)(=O)c1ccc(Cl)cc1

1: inactive; 2: 44.7 µM (active); 3: inactive; 4: inactive
